Molecular target: Thyrotropin receptor (Homo sapiens) (UniProt P16473)
Sequence (P16473 whole entry, looked up): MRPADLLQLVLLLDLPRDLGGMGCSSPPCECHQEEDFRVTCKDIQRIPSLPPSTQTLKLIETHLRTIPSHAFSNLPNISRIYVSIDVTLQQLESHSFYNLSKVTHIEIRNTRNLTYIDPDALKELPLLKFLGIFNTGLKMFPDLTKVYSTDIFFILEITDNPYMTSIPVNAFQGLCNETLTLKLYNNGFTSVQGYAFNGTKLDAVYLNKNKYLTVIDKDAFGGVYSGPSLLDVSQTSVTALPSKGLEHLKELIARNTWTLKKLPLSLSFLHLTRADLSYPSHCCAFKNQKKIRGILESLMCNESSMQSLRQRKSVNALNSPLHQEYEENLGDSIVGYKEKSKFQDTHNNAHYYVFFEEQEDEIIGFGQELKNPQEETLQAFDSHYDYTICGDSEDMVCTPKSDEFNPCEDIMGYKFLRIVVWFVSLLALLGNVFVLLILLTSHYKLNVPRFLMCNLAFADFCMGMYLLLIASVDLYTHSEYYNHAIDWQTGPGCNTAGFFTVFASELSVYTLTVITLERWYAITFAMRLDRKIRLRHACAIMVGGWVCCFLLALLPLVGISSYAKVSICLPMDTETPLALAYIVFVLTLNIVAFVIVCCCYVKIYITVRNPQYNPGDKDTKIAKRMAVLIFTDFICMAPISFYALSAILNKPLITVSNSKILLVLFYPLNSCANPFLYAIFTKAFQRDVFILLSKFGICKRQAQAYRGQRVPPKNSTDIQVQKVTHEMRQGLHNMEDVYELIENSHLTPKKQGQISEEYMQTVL
Test: Secondary Concentration-Response Assay for Agonists of the Thyroid Stimulating Hormone Receptor: HTRF Activity Detection; note: potency is the fitted concentration of half-maximal effect;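 for activation: HEK 293 cells stably expressing human TSHR with RO 20-1724 phosphodiesterase inhibitor; % of control where 0% means no effect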
Details: HEK293-TSHR cells, cAMP HTRF ratio, 30 min; series mostly up to 91.7 µM
Results filed as inconclusive are left out. Calls of active or inactive are those of the source. Calls come from the whole dose curve; as a rule, active = well fitted activation curve with a large enough effect in the signal ratio, with a control signal flat; inconclusive = small, poorly fitted or top-dose-only effect, or a change in a side signal; inactive = flat fitted curve, though single readings scatter; the % refers to the signal ratio.

>  <compound>
COc1ccc(C(=O)N(Cc2ccccc2)Cc2ccccc2)c(O)c1

>  <Potency>
25.1 µM (active)

$$$$
>  <compound>
COc1ccc(CN2C(=O)c3ccccc3NC2c2ccc(OC)c(COc3ccc(NC(C)=O)cc3)c2)cc1 (stereo not given)

>  <Potency>
3.16 µM (active)

$$$$
>  <compound>
COc1ccc(C2Nc3ccc(NC(C)=O)cc3C(=O)N2Cc2ccccc2)cc1COc1ccc(NC(C)=O)cc1 (stereo not given)

>  <Potency>
15.8 µM (active)

$$$$
>  <compound>
COc1ccc(-c2nc3ccccc3c(=O)n2Cc2ccccc2)cc1COc1ccc(NC(C)=O)cc1

>  <Potency>
8.91 µM (active)

$$$$
>  <compound>
COc1ccc(C(=O)N(Cc2ccccc2)Cc2cccs2)c(O)c1

>  <Potency>
28.2 µM (active)

$$$$

---

Target: Thyrotropin receptor (Homo sapiens) (UniProt P16473)
Test: Secondary Concentration-Response Assay for Agonists of the Thyroid Stimulating Hormone Receptor: HTRF Activity Detection;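 for activation: HEK 293 cells stably expressing human TSHR with RO 20-1724 phosphodiesterase inhibitor; % of control where 0% means no effect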
Details: HEK293-TSHR cells, cAMP HTRF ratio, 30 min; series mostly up to 91.7 µM
Inconclusive results are not listed. Active and inactive are the calls of the source. Calls follow the shape of the dose curve; as a rule, active = well fitted activation curve with a large enough effect in the signal ratio, with a control signal flat; inconclusive = small, poorly fitted or top-dose-only effect, or a change in a side signal; inactive = flat fitted curve, though single readings scatter; the % refers to the signal ratio.
measured.metric: activation

>  <compound>
O=C(COC(=O)C12CC3CC(CC(C3)C1)C2)NCC1CCCO1 (stereo unspecified)

>  <experimental.target>
Thyrotropin receptor (Homo sapiens) (UniProt P16473)

>  <recorded.measurement>
inactive

$$$$
>  <compound>
COc1ccc2c(c1OC)C(=O)N1c3ccccc3C(=O)N(Cc3ccco3)C21 (stereo unspecified)

>  <experimental.target>
Thyrotropin receptor (Homo sapiens) (UniProt P16473)

>  <recorded.measurement>
inactive

$$$$
>  <compound>
O=C(CSc1nnc(-c2ccccc2)n1Cc1ccco1)Nc1ccc2c(c1)OCCO2

>  <experimental.target>
Thyrotropin receptor (Homo sapiens) (UniProt P16473)

>  <recorded.measurement>
-0.544% [at 0.00035 µM] (inactive)

$$$$
>  <compound>
CCn1c(=O)c(C(=O)CN2CCCc3ccccc32)c(N)n(Cc2ccccc2)c1=O

>  <experimental.target>
Thyrotropin receptor (Homo sapiens) (UniProt P16473)

>  <recorded.measurement>
inactive

$$$$
>  <compound>
CCCN1C(=O)c2ccccc2NC1c1ccc(OC)cc1O (stereo unspecified)

>  <experimental.target>
Thyrotropin receptor (Homo sapiens) (UniProt P16473)

>  <recorded.measurement>
inactive

$$$$
>  <compound>
CCOC(=O)COc1ccccc1C1Nc2ccccc2C(=O)N1c1cccc(Cl)c1 (stereo unspecified)

>  <experimental.target>
Thyrotropin receptor (Homo sapiens) (UniProt P16473)

>  <recorded.measurement>
inactive

$$$$

---

Target: Thyrotropin receptor (Homo sapiens) (UniProt P16473)
Test: Secondary Concentration-Response Assay for Agonists of the Thyroid Stimulating Hormone Receptor: HTRF Activity Detection;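 for activation: HEK 293 cells stably expressing human TSHR with RO 20-1724 phosphodiesterase inhibitor; % of control where 0% means no effect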
Conditions: HEK293-TSHR cells, cAMP HTRF ratio, 30 min; series mostly up to 91.7 µM
Results filed as inconclusive are left out. Activity calls are given as the source filed them. Calls follow the shape of the dose curve; as a rule, active = well fitted activation curve with a large enough effect in the signal ratio, with a control signal flat; inconclusive = small, poorly fitted or top-dose-only effect, or a change in a side signal; inactive = flat fitted curve, though single readings scatter; the % refers to the signal ratio.
measured.metric: activation

>  <compound>
Cc1cc(C)n(S(=O)(=O)c2cc(C(=O)O)c(Cl)cc2Cl)n1

>  <measured.metric>
activation

>  <recorded.measurement>
-0.754% [at 0.00035 µM] (inactive)

$$$$
>  <compound>
Cc1nn(C)c(C)c1S(=O)(=O)N(CC(=O)Nc1nccs1)c1ccc(C(C)C)cc1

>  <measured.metric>
activation

>  <recorded.measurement>
0.117% [at 0.00035 µM] (inactive)

$$$$
>  <compound>
CCOC(=O)c1cnc(-n2nc(C)cc2C)nc1-n1nc(C)cc1C

>  <measured.metric>
activation

>  <recorded.measurement>
-0.245% [at 0.00035 µM] (inactive)

$$$$
>  <compound>
COc1cc(C2Nc3ccccc3C(=O)N2Cc2ccccc2)ccc1OCc1ccccc1 (stereo not given)

>  <measured.metric>
activation

>  <recorded.measurement>
inactive

$$$$
>  <compound>
COc1cc(C2Nc3ccccc3C(=O)N2Cc2ccco2)ccc1O (stereo not given)

>  <measured.metric>
activation

>  <recorded.measurement>
inactive

$$$$
>  <compound>
O=C(CN(Cc1ccc(F)cc1)S(=O)(=O)c1ccccc1)N1CCCCC1

>  <measured.metric>
activation

>  <recorded.measurement>
0.34% [at 0.00035 µM] (inactive)

$$$$
>  <compound>
CCSCCOC(=O)C1=C(C)N(C)C(=O)NC1c1cc(OC)ccc1OC (stereo not given)

>  <measured.metric>
activation

>  <recorded.measurement>
1.56% [at 0.00035 µM] (inactive)

$$$$
>  <compound>
COc1ccc(N2C(=O)c3ccccc3NC2c2ccc(OC)c(Cn3nnc4ccccc43)c2)cc1 (stereo not given)

>  <measured.metric>
activation

>  <recorded.measurement>
inactive

$$$$
>  <compound>
Brc1ccc(Oc2nnnn2-c2ccccc2)cc1

>  <measured.metric>
activation

>  <recorded.measurement>
-1.07% [at 0.00035 µM] (inactive)

$$$$
>  <compound>
COc1ccc(-c2nc3ccc(NC(C)=O)cc3c(=O)n2Cc2ccccc2)cc1COc1ccc(NC(C)=O)cc1

>  <measured.metric>
activation

>  <recorded.measurement>
inactive

$$$$
